# Tested on: MDA-MB-435 melanoma
# Assay text: NCI-60 one-dose screen, 48 h
# Condition notes: 10 µM unless noted
# Experimental: Growth inhibition of the MDA-MB-435 human Melanoma tumor cell line is measured as a screen for anti-cancer activity. Cells are grown in 96 well plates and exposed to the test compound for 48 hours. Compounds are tested at a single concentration, which is 10^-5 M for most compounds. The reported endpoint is percent growth (GI% or GIPRCNT), where numbers from 0 - 100% represent growth inhibition, and numbers from -100% - 0 represent cell death. […]
This is part of a sample that, as a whole, favours compounds with a hit. Of some 83,000 tested, about 20% had one in any assay. Active and inactive are the calls of the source. How the source made its calls: active means growth percent below 10; inactive means the rest.
Classes used: true (1) = active, false (0) = inactive

{"Molecule": "COc1ccc(-c2cc(-c3ccccc3)nc(SCCCCCC(=O)NO)n2)cc1", "Group label": "false (0)"}
{"Molecule": "CCNC(=O)N1CCc2c(Cl)c3c(c(OC)c2[C@@H]1[C@H]1OCc2c1ccc(OC)c2OC)OCCO3", "Group label": "true (1)"}
{"Molecule": "Cc1cc2c(C(C)C)c(O)c(O)c(C=NCc3ccoc3)c2c(O)c1-c1c(C)cc2c(C(C)C)c(O)c(O)c(C=NCc3ccco3)c2c1O", "Group label": "false (0)"}
{"Molecule": "C=C(C)C1CCC2(C(=O)O)CCC3(C)C(CCC4C5(C)CCC(OC(=O)NCc6ccccc6)C(C)(C)C5CCC43C)C12 (stereo not drawn)", "Group label": "false (0)"}
{"Molecule": "Cc1cccc(C[C@H](NC(=O)Nc2ccc(Cl)cc2F)C(=O)N[C@@H]2C(=O)N3C[C@H](O)C[C@H]3C(=O)N3CCN(C)C[C@H]3C(=O)N[C@@H](C)C(=O)N3C[C@H](C)C[C@H]3C(=O)O[C@H]2C)c1", "Group label": "false (0)"}
{"Molecule": "NC(=O)c1cccc(-c2ccc(S(=O)(=O)Nc3ccc4c(c3)N(C(=O)C3CC3)CCC4)cc2)c1", "Group label": "true (1)"}
{"Molecule": "CC1Cc2ccc(OCCN(C)C)cc2C1=O (stereo not drawn)", "Group label": "false (0)"}
{"Molecule": "C[n+]1c(-c2ccccc2)c2cc(N)ccc2c2ccccc21", "Group label": "false (0)"}
{"Molecule": "CC1(C)C(=NO)C(C)(C)C1=NO", "Group label": "false (0)"}
{"Molecule": "Cc1ccc(-c2cc(O)c(-c3ccc(C)cc3C)cc2O)c(C)c1", "Group label": "false (0)"}
{"Molecule": "Cn1cc(-c2nnc(-c3ccccc3)s2)c2cc(Br)cnc21", "Group label": "false (0)"}
{"Molecule": "COc1ccc2c(c1)C(C)Cc1c(Cl)nc(C)nc1N2C (stereo not drawn)", "Group label": "true (1)"}
{"Molecule": "C#CCNC(=O)CC[C@@H](C)[C@H]1CC[C@H]2[C@@H]3CC[C@@H]4CC(=O)CC[C@]4(C)[C@H]3CC[C@]12C", "Group label": "true (1)"}
{"Molecule": "O=C1Cc2c(sc3c(F)cccc23)C(c2ccccc2[N+](=O)[O-])N1 (stereo not drawn)", "Group label": "false (0)"}
{"Molecule": "O=C(N=c1n(-c2ccccc2)nc2n1CCN2C1=NCCN1C(=O)c1ccc(Cl)cc1)c1ccc(Cl)cc1", "Group label": "false (0)"}
{"Molecule": "Cc1cc(C)c(S(=O)(=O)/N=c2/n(-c3ccccc3)nc3n2CCN3C2=NCCN2)c(C)c1", "Group label": "false (0)"}
{"Molecule": "CC1(C)CC[C@]23CC[C@]4(C)[C@H](CC[C@@H]5[C@@]6(C)C/C(=C/c7cccnc7)C(=O)C(C)(C)[C@@H]6CC[C@]54C)[C@H]2[C@H]1OC3=O", "Group label": "false (0)"}
{"Molecule": "CN(C)CCOc1ccc(/C(=C(/CCCl)c2ccccc2)c2ccccc2)cc1", "Group label": "true (1)"}

###

# System: SF-268 CNS
# Assay text: NCI-60 one-dose screen, 48 h (100 = growth as untreated, 0 = no growth, -100 = all killed)
# Condition notes: 10 µM unless noted
# Description: Cells are grown in 96 well plates and exposed to the test compound for 48 hours. Compounds are tested at a single concentration, which is 10^-5 M for most compounds. The reported endpoint is percent growth (GI% or GIPRCNT), where numbers from 0 - 100% represent growth inhibition, and numbers from -100% - 0 represent cell death. For example, a value of 40 represents 60% growth inhibition. A value of 0 means no net growth occurred over the course of the experiment. […]
About 83,000 compounds went through this panel and 20% of them were active in at least one assay; those are over-represented in the sample as a whole. Active and inactive are the calls of the source. How the source made its calls: active means growth percent below 10; inactive means the rest.

{"Molecule": "COCCCNc1nc(NC(=O)c2cc(Br)cc(C(F)(F)F)c2)cc(-c2cccnc2)n1", "Measured target": "SF-268 CNS", "growth": "90.5% (inactive)"}
{"Molecule": "CC(=O)Nc1ccc2nc3ccc(NC(C)=O)cc3[n+](-c3ccccc3)c2c1", "Measured target": "SF-268 CNS", "growth": "97.5% (inactive)"}
{"Molecule": "Cc1ccc(NCCN2CCCCC2)c2c(=O)c3ccccc3sc12", "Measured target": "SF-268 CNS", "growth": "45.7% (inactive)"}
{"Molecule": "COc1ncc(-c2ccc3nccc(C#CCCCCC(=O)NO)c3c2)cc1NS(=O)(=O)c1ccc(F)cc1F", "Measured target": "SF-268 CNS", "growth": "-11.6% (active)"}
{"Molecule": "O=C1COCCN1c1ccc(NCc2cn(Cc3ccccc3)c3ccccc23)cc1", "Measured target": "SF-268 CNS", "growth": "91.9% (inactive)"}
{"Molecule": "Fc1ccc(NC(=S)c2ccccc2)cc1", "Measured target": "SF-268 CNS", "growth": "99% (inactive)"}
{"Molecule": "Cc1ccc2c(n1)C(=O)C(Cl)=C(Nc1ccc(N3CCN(C)CC3)cc1)C2=O", "Measured target": "SF-268 CNS", "growth": "77.7% (inactive)"}
{"Molecule": "CCCCCCCCN(CCCCCCCC)CC(O)c1ccc(Cl)c(C)c1Cl (stereo not given)", "Measured target": "SF-268 CNS", "growth": "91.9% (inactive)"}
{"Molecule": "Cc1c(Cn2cc(COc3ccc(Br)cc3)nn2)c(C)c(Cn2cc(COc3ccc(Br)cc3)nn2)c(C)c1Cn1cc(COc2ccc(Br)cc2)nn1", "Measured target": "SF-268 CNS", "growth": "97% (inactive)"}
{"Molecule": "O=C(Nc1ccc(C(=O)/C=C/c2ccc(N3CCOCC3)cc2)cc1)Nc1ccc([N+](=O)[O-])cc1", "Measured target": "SF-268 CNS", "growth": "97.1% (inactive)"}
{"Molecule": "Nc1cc(C(=O)O)[nH]c(=S)n1", "Measured target": "SF-268 CNS", "growth": "98.6% (inactive)"}
{"Molecule": "COc1ccc2nc3cc(Cl)ccc3c(Nc3ccc(O)c(CN4CCCC4)c3)c2c1", "Measured target": "SF-268 CNS", "growth": "38.5% (inactive)"}
{"Molecule": "N#C/C(=C(/O)CCCO)c1nc2ccccc2c(=O)[nH]1", "Measured target": "SF-268 CNS", "growth": "112% (inactive)"}
{"Molecule": "CCCC(NC(=O)OCc1ccccc1)C(=O)O (stereo not given)", "Measured target": "SF-268 CNS", "growth": "104% (inactive)"}
{"Molecule": "COc1ccc(CC(C#N)c2ccc(Cl)cc2)cc1 (stereo not given)", "Measured target": "SF-268 CNS", "growth": "78% (inactive)"}
{"Molecule": "Cc1cnc([C@]23CC[C@@H](C)[C@H](C)[C@H]2C2=CC[C@@H]4[C@@]5(C)Cc6c([nH]c7ccccc67)C(C)(C)[C@@H]5CC[C@@]4(C)[C@]2(C)CC3)o1", "Measured target": "SF-268 CNS", "growth": "36.1% [100 µM] (inactive)"}
{"Molecule": "O=C(CCNCc1ccccc1)c1ccccc1", "Measured target": "SF-268 CNS", "growth": "108% (inactive)"}
{"Molecule": "C=CCc1nc2ccccc2s1", "Measured target": "SF-268 CNS", "growth": "108% (inactive)"}
{"Molecule": "C[C@H]1[C@H](C)CC[C@]2(C(=O)N3CCN(C)CC3)CC[C@]3(C)C(=CC[C@@H]4[C@@]5(C)C/C(=C/c6ccco6)C(=O)C(C)(C)[C@@H]5CC[C@]43C)[C@H]12", "Measured target": "SF-268 CNS", "growth": "50.3% [100 µM] (inactive)"}
{"Molecule": "CCOC(=O)n1cc(C2=C(c3ccc(OC)c(OC)c3)COC2=O)c2ccccc21", "Measured target": "SF-268 CNS", "growth": "28.2% (inactive)"}
